- system: Sodium channel protein type 10 subunit alpha (Homo sapiens, UniProt Q9Y5Y9)
- Sequence (Q9Y5Y9 whole entry): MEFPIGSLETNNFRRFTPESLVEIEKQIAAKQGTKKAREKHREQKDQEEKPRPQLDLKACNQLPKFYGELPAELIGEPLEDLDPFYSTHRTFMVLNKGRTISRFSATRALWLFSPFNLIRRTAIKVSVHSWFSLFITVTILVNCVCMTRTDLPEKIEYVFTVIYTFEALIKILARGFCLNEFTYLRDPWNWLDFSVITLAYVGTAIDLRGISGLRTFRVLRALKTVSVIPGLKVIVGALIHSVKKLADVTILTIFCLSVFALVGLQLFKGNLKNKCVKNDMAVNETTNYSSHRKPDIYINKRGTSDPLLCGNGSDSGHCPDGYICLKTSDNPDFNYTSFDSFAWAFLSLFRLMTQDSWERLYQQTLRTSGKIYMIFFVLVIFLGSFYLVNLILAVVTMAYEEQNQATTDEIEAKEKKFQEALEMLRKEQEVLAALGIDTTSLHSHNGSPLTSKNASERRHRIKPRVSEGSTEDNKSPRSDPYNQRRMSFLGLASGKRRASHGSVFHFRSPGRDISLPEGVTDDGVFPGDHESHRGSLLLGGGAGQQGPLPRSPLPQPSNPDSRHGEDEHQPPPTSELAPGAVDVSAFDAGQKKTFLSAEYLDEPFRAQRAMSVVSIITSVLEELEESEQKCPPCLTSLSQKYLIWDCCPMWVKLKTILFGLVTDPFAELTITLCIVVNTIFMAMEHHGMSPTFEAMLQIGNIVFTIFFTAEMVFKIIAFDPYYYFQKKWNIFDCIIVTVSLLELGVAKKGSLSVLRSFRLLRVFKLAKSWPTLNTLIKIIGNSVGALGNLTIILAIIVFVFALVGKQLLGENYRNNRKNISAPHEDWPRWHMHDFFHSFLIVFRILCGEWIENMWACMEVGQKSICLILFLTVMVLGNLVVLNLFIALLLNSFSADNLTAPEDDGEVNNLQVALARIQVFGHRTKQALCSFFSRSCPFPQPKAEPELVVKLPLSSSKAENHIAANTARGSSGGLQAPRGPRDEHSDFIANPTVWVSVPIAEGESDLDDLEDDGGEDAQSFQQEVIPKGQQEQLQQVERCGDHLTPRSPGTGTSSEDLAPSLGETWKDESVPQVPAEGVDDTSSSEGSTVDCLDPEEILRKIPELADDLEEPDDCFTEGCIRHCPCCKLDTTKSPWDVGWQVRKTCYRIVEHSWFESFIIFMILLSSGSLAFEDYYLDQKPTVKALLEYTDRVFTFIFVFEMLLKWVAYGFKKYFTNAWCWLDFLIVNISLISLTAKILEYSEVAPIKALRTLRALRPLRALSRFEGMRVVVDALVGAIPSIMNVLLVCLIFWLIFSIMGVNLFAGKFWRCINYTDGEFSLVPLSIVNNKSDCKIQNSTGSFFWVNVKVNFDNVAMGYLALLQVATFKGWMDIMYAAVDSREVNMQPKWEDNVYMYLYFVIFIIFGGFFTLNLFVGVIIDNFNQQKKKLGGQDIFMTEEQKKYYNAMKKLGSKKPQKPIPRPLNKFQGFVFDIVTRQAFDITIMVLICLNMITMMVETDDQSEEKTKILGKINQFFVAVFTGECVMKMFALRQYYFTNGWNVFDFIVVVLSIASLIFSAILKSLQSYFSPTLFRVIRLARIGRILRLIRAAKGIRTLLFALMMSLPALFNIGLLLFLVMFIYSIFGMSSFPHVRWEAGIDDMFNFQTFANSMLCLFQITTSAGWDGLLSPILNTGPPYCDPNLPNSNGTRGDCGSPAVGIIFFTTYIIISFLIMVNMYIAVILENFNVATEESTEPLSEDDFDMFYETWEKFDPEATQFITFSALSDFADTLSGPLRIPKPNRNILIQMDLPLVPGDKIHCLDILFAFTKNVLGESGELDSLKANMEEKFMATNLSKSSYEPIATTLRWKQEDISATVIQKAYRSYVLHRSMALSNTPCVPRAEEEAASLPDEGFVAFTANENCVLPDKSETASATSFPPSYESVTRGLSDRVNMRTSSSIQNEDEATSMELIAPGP
- measurement_protocol: Pharmacological Assay
Form field: IC50 (one value per entry).
Field: numeric (nM). Do not append units.

compound | unit_of_measurement | IC50
O=C1c2cc(F)c(C(F)(F)F)cc2N2CN1c1ccc(=O)[nH]c1CCNCc1c2ccc(OC(F)(F)F)c1F | nM | 3.16
O=C1c2ccc(C(F)(F)F)cc2N2CN1c1ccc(=O)[nH]c1CCCCCOc1cc(F)ccc12 | nM | 316
O=C1c2cc(OCC(F)(F)F)ccc2N2CN1c1ccc(=O)[nH]c1CCNCc1cc(F)ccc12 | nM | 1260
O=C1c2cc(F)c(C(F)(F)F)cc2N2CN1c1ccc(=O)[nH]c1CCNCc1cc(OC(F)(F)F)ccc12 | nM | 10
O=C1c2cc(C(F)(F)F)ccc2N2CN1c1ccc(=O)[nH]c1CCNCc1cc(F)c(F)cc12 | nM | 200

Turning now to a further record.
Entry under test: CC1CCNc2[nH]c(=O)ccc2N2CN(c3cc(C(F)(F)F)c(F)cc3C2=O)c2ccc(F)c(F)c21 (stereo unspecified) . Its IC50 was 15.8
